Hi there, I'd appreciate the recorded pEC50 for every entry that follows.
# system.tested: T1, recombinant human IL-7Rα-His6-Fc (human, UniProt P16871 21-239)
# T1 construct: also called hIL-7R; not shown: His6 tag; Fc (captured by anti-human IgG Fc)
# T1 chain: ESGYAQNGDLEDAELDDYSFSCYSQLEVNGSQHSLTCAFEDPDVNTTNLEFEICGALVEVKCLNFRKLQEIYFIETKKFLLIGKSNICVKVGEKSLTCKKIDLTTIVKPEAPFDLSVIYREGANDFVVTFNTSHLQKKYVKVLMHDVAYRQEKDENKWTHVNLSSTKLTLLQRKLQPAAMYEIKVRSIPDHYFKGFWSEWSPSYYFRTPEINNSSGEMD
# assay.comment: IL-7/IL-7R neutralisation ELISA; inhibition of IL-7 binding to IL-7R
One number for each entry, as −log10 of the molar value.

# example entries with known answers
Given item ID-A9U (VHH, V7R-2E9 with E44G; produced from E. coli) VHH: EVQLVESGGGLVQAGGSLRLSCESSISTFSSDAMGWFRQAPGKGREFLAAIGWSGAVTHYSDSVQGRFTISRDNAKNTVYLQMNSLKSEDTGRYYCAEDYDTDVWQYWGQGTQVTVSS , the value recorded as its pEC50 is 9.77

Looking up ID-A6U (VHH, V7R-2E9 with F37V; produced from E. coli) VHH: EVQLVESGGGLVQAGGSLRLSCESSISTFSSDAMGWVRQAPGKEREFLAAIGWSGAVTHYSDSVQGRFTISRDNAKNTVYLQMNSLKSEDTGRYYCAEDYDTDVWQYWGQGTQVTVSS , I see its pEC50 listed as 9.71

Parameter requested: pEC50. Apply to each item below.
1. ID-A15U (VHH, V7R-2E9 with V79L; produced from E. coli) VHH: EVQLVESGGGLVQAGGSLRLSCESSISTFSSDAMGWFRQAPGKEREFLAAIGWSGAVTHYSDSVQGRFTISRDNAKNTLYLQMNSLKSEDTGRYYCAEDYDTDVWQYWGQGTQVTVSS
2. ID-A16U (VHH, V7R-2E9 with K87R; produced from E. coli) VHH: EVQLVESGGGLVQAGGSLRLSCESSISTFSSDAMGWFRQAPGKEREFLAAIGWSGAVTHYSDSVQGRFTISRDNAKNTVYLQMNSLRSEDTGRYYCAEDYDTDVWQYWGQGTQVTVSS

[9.84, 9.35]
